B1: library; a variant is named by its letters at N, in order (parent)
chain: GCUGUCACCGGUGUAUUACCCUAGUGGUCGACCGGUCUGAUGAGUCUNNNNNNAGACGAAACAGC

variants of: B1; assay: normalized RNA/DNA level with ligand (relative to sTRSVctl = 100) (log10 (% of sTRSVctl)); ligand: hypoxanthine (xanthine aptamer); higher = less ribozyme self-cleavage, higher mRNA level; settings: ligand concentration (+) RNA-Seq: 5 mM, HEK293T, reporter: mCherry (pCS4076), ligand present: yes
Reported normalized RNA/DNA level with ligand (log10) values for a set of variants
MEASURED_ATTRIBUTE: normalized RNA/DNA level with ligand (log10)

> print(dat)
    change  assay.result
 1  CUUGAC          1.92
 2  CGUCCU          2.02
 3  UUAACU          1.93
 4  GCUUAC          1.92
 5  CUGCAU          1.94
 6  GGACUG          1.89
 7  AAACUA          1.89
 8  AUAUCA          1.94
 9  UGACGG           1.9
10  GGCUGC          1.92
11  UCUAGA          1.91
12  AGUCCG           1.9
13  UGGAGG          1.73
14  AGCACU          1.96
15  UCUACU          1.97
16  CCCUGC          2.04
17  GGAACC          1.96
18  GUCGAC          1.92
19  UGAGCG           1.9
20  GCAACG           1.9
21  CCAUAA          1.91
22  GGUCAA          1.94
